Values were extracted from PubChem BioAssay (NCI).

- experimental protocol: NCI Yeast Anticancer Drug Screen. Data for the mgt1 strain (AID 153)
- condition details: S. cerevisiae mgt1 mutant growth inhibition; at 11.0 µM; hits give high values
Compounds without any hit were thinned out: in the full panel of roughly 79,000, 15% have a hit. Active and inactive are the calls of the source. No stated cut-off is given here; in the data, active means growth inhibition above about 70%; inactive means the rest.
property name: growth inhibition

A selection of reference data follows.
{"columns": ["compound", "result"],
 "data": [
  ["CC(Br)C(=O)c1ccc2cc(Br)c3ccccc3c2c1 (centres undefined)", "-1% (inactive)"],
  ["COC(=O)c1ccc([N+](=O)[O-])c(O)c1", "-4% (inactive)"],
  ["Cn1c(=O)c2ccccc2c2ccccc21", "-1% (inactive)"],
  ["CC(C)(C)c1nc2c(o1)C(=O)c1ccccc1C2=O", "19% (inactive)"],
  ["CCCC/C=C/C(CC)(C(=O)OCC)C(=O)OCC", "-2% (inactive)"]
]}

// query growth inhibition value for entry O=C(COC(=O)c1cc(O)c(O)c(O)c1)c1ccc(-c2ccccc2)cc1
0% (inactive)

Consider next the compound CC(C)C1=CCC2C(=C1)CCC1C(C)(C(=O)O)CCCC21C (centres undefined) (tested in a mixture with another compound) in the same way.
6% (inactive)

Consider next the compound COc1ccc(OC)c2cc3ccccc3cc12 in the same way.
15% (inactive)

Consider next the compound CCCCCCCCCCC1CCC(=O)O1 (centres undefined) in the same way.
0% (inactive)

###

Quick reference: growth inhibition of the listed items.
- experimental protocol: NCI Yeast Anticancer Drug Screen. Data for the wt1 strain (AID 149);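 further: 0% = growth of vehicle-treated wt1 cultures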
- condition details: S. cerevisiae wt1 strain (SPY 50644) growth inhibition; at 33.0 µM; hits give high values
About 79,000 compounds went through this panel and 15% of them were active in at least one assay; those are over-represented in the sample as a whole.
# output: bare number, implied unit %

{"columns": ["molecule", "growth inhibition [%]"],
 "data": [
  ["O=C(O)CNc1ccc(Cl)c(Cl)c1", 25]
]}

// query growth inhibition value for entry c1ccc2c(c1)C(=NCCCN1CCCCCC1)c1cccn1-2
-1

Consider next the molecule CCc1ncnc2cc(OCC3CO3)c(OC)cc12 (configuration not stated) in the same way.
6

Consider next the molecule CC(=O)N/N=C/C(C)(C)C(C)(C)/C=N/NC(C)=O in the same way.
27

Consider next the molecule C[CH2][Sn]([CH2]C)([O]C(=O)C(OC(C)=O)c1ccccc1)[O]C(=O)C(OC(C)=O)c1ccccc1 (configuration not stated) in the same way.
47

Consider next the molecule CCCCc1cc(O)ccc1O in the same way.
3

Consider next the molecule NC(=O)NN=C(CS)CS in the same way.
17

Consider next the molecule NC(=NCc1ccccc1)N/N=C\c1ccnc2ccccc12 in the same way.
0

###

- experimental protocol: NCI Yeast Anticancer Drug Screen. Data for the rad52 strain (AID 147);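 further: 0% = growth of vehicle-treated control cultures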
- condition details: S. cerevisiae rad52 mutant growth inhibition; at 3.7 µM; hits give high values
About 79,000 compounds went through this panel and 15% of them were active in at least one assay; those are over-represented in the sample as a whole.
property name: growth inhibition (%)
# output: bare number, implied unit %

A selection of reference data follows.
{"columns": ["molecule", "measure unit", "growth inhibition"],
 "data": [
  ["NNC(=O)CCc1ccc2ccc3ccccc3c2c1", "%", -3],
  ["CCC(=O)c1cccc2ccccc12", "%", 2],
  ["O=C(NCCCCNCCCNC(=O)c1cc(-c2ccccc2)nc2ccccc12)c1cc(-c2ccccc2)nc2ccccc12", "%", -1],
  ["C=C1CC(Cn2cc(Br)c(=O)[nH]c2=O)(c2ccc(-c3ccccc3)cc2)OC1=O (stereo unspecified)", "%", 13],
  ["Cc1nc(-c2ccccc2)c(-c2ccccc2)s1", "%", 0]
]}

Turning now to a further record.
// query growth inhibition value for entry O=[N+]([O-])CC(SCc1ccccc1)c1ccc2c(c1)OCO2 (stereo unspecified)
34
